- Tested on: RARg homodimer (NR concentration 270 nM)
- experimentalDetails: PBM binding z-score (relative to random genomic background probes); higher = stronger binding; sequences stand for … in GC…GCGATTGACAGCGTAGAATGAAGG
Classify as follows. Reported PBM binding z-score greater than or equal to 4: TRUE. Reported PBM binding z-score below: FALSE.

State whether the measured PBM binding z-score reaches 4, counting equality as reaching it, for TGAATGAGGTTAAAGATGAGGGAACGTGGCGTCG
FALSE

State whether the measured PBM binding z-score reaches 4, counting equality as reaching it, for CCAGACAGGTGATAAGGTAACTCAGCCTCGATTA
FALSE

State whether the measured PBM binding z-score reaches 4, counting equality as reaching it, for ATCCAAAGGTCGTGAGGTGAGTATACAGAAAGGC
TRUE

State whether the measured PBM binding z-score reaches 4, counting equality as reaching it, for CTCGAAAGGTCGGTTGAGGTGAGTATGCGGATAA
FALSE

State whether the measured PBM binding z-score reaches 4, counting equality as reaching it, for ATATGTAGGTTAGCTGGGGTGATTCAGACTAGGC
FALSE

State whether the measured PBM binding z-score reaches 4, counting equality as reaching it, for GCTAGCAGGCCATTTGGATCACTCAATGACGGGC
FALSE

State whether the measured PBM binding z-score reaches 4, counting equality as reaching it, for GGAATGAGGGCAAAGTTGATAGCATCTGTCGACG
FALSE

State whether the measured PBM binding z-score reaches 4, counting equality as reaching it, for CCTACTGGGCCAAGGTGATTGATCAGTCAAAGCA
FALSE

State whether the measured PBM binding z-score reaches 4, counting equality as reaching it, for TATACAGGGTCAAATGCCAGAGTACGAATGTCGA
TRUE

State whether the measured PBM binding z-score reaches 4, counting equality as reaching it, for CGTACAAGGTCAAGGTCAGTGAAAGAGACTCGAA
TRUE

State whether the measured PBM binding z-score reaches 4, counting equality as reaching it, for ACCGAAAGGTCGACGAGGTGAGTATACACCGTTT
TRUE

State whether the measured PBM binding z-score reaches 4, counting equality as reaching it, for TGTCAAAGTTCAAAGGTAACGCAAGTATCCACAC
TRUE

State whether the measured PBM binding z-score reaches 4, counting equality as reaching it, for CGAACGAAGGCATGAGTTGATAGCAAATGCCGAT
FALSE

State whether the measured PBM binding z-score reaches 4, counting equality as reaching it, for ATCTCTAGGTAACGAAGTTCAGTGAATGCCGAAC
FALSE

State whether the measured PBM binding z-score reaches 4, counting equality as reaching it, for CGAACCAGGTCATTGACAGGACAGTGAATAGTAA
TRUE

State whether the measured PBM binding z-score reaches 4, counting equality as reaching it, for ACTAGCAGCCCAAGTTTGGGTCACTCAAACAAAG
FALSE

State whether the measured PBM binding z-score reaches 4, counting equality as reaching it, for ATATGTAGGTTAGCTGGGGCCATTCAGACTAGGC
FALSE

State whether the measured PBM binding z-score reaches 4, counting equality as reaching it, for ATTAGTTGGTCAGCTGAGGTCACACACAATTCGG
TRUE

State whether the measured PBM binding z-score reaches 4, counting equality as reaching it, for GCTGCTAGGTCAACTGATGGTCTGCTAAAGCTCG
TRUE

State whether the measured PBM binding z-score reaches 4, counting equality as reaching it, for ATATGTAGGTTAGCTGGGGTCATTTAGACTAGGC
FALSE

State whether the measured PBM binding z-score reaches 4, counting equality as reaching it, for CGATCTAGGTCATCCAGGACAGTGAATACATTGA
TRUE

State whether the measured PBM binding z-score reaches 4, counting equality as reaching it, for CGTCCAAGGTCAAATGTCAGTGAAGAGATGACGG
TRUE

State whether the measured PBM binding z-score reaches 4, counting equality as reaching it, for TCTCGGGGGACACGAAGGTCAGAGCTTTCCAGAG
TRUE

State whether the measured PBM binding z-score reaches 4, counting equality as reaching it, for GCAGACAGGTGAAACGCAGGTAACTCTGGGTGGC
FALSE

State whether the measured PBM binding z-score reaches 4, counting equality as reaching it, for TCATATAGGTAAAAGCTAGGTGAAAGTCCGATCT
FALSE

State whether the measured PBM binding z-score reaches 4, counting equality as reaching it, for ATCTCTAGGTAAAGATCAGTGAAAGATCGATAGA
FALSE

State whether the measured PBM binding z-score reaches 4, counting equality as reaching it, for GCTCGGAGGACAAGGTTAGAGCTTTGTCCGTAGA
FALSE

State whether the measured PBM binding z-score reaches 4, counting equality as reaching it, for ACTAGTTGGTCAGCAGAGGTCACACACAATTCGG
TRUE

State whether the measured PBM binding z-score reaches 4, counting equality as reaching it, for TCTATTAGTTGAAGGGCAACTGACGAGTCCGTTT
FALSE

State whether the measured PBM binding z-score reaches 4, counting equality as reaching it, for TTACCAAGGTGAGCTGAGGTCGTTGTTCCAACTC
FALSE

State whether the measured PBM binding z-score reaches 4, counting equality as reaching it, for TCTCGGAGGACAAGAAGGTCAGAGCTTTCCAGAG
FALSE

State whether the measured PBM binding z-score reaches 4, counting equality as reaching it, for ACTAGCAGGCCAAGGGTCACTCATGATTAGTCCG
FALSE

State whether the measured PBM binding z-score reaches 4, counting equality as reaching it, for CCGACTGGGGCAAGGTTACTATAACGCACAGCCA
FALSE

State whether the measured PBM binding z-score reaches 4, counting equality as reaching it, for GCATATAGGTAATACAAGGTGGAAGTCCGATTGT
FALSE

State whether the measured PBM binding z-score reaches 4, counting equality as reaching it, for TCTGCTAGGCCAACGATGGTCAGCTAATCTGCTA
FALSE

State whether the measured PBM binding z-score reaches 4, counting equality as reaching it, for CCTTCCGGGTCACGAGGTTATAGCACGACGAGCG
TRUE

State whether the measured PBM binding z-score reaches 4, counting equality as reaching it, for AGAATGAGGTGAAGATCAGGGAAACAGAATACAT
FALSE

State whether the measured PBM binding z-score reaches 4, counting equality as reaching it, for ATCTCTAGGTAACAAGTTCATTGAAAGAGAGGAC
FALSE

State whether the measured PBM binding z-score reaches 4, counting equality as reaching it, for TCTTTTAGTTGAAGGGCAACCGACGAGTCCGTTT
FALSE

State whether the measured PBM binding z-score reaches 4, counting equality as reaching it, for GCTATTAGTTGAATGGGCAACCGAATGATTCTCG
FALSE

State whether the measured PBM binding z-score reaches 4, counting equality as reaching it, for CGTCCAAGGTCAATGCTAGGTCAGCGAAAGCATT
TRUE

State whether the measured PBM binding z-score reaches 4, counting equality as reaching it, for AGAATTAGGTTAAGATCAGGGAAACAGAATACAT
FALSE

State whether the measured PBM binding z-score reaches 4, counting equality as reaching it, for ATTATTAGTTGACTTAGGGCAACCGATACGACGC
FALSE

State whether the measured PBM binding z-score reaches 4, counting equality as reaching it, for ATCTCTAGGTAACCAAGATCAGTGAATGCCGAAC
FALSE

State whether the measured PBM binding z-score reaches 4, counting equality as reaching it, for TAGCCTAGGTCCTGGGCCAGTATACCACGCGAAC
FALSE

State whether the measured PBM binding z-score reaches 4, counting equality as reaching it, for CCTACTGGGCCCAGGTCATTGATCAGTCAAAGCA
FALSE

State whether the measured PBM binding z-score reaches 4, counting equality as reaching it, for TCTTGTAGATCAAGCAGGTTAAGTAAGCCTGAGT
FALSE

State whether the measured PBM binding z-score reaches 4, counting equality as reaching it, for TGAATGAGGTTAAGGATCAGGGAACGTGGCGTCG
FALSE

State whether the measured PBM binding z-score reaches 4, counting equality as reaching it, for AGAATGAGGTTATACGTAGATCAGGGCAGAAAGT
FALSE
